# Test system: Pichia kudriavzevii
# Protocol Notes: Antimicrobial activity against Candida krusei ATCC 6258 after 18 to 20 hrs by microbroth dilution method
# Type: functional
Where a SMILES comes first, the peptide text is derived from it. [ ]: non-standard residue; d: D form. Aic = NC1(C(=O)O)Cc2ccccc2C1

Compound: CC[C@H](C)C(NC(=O)[C@H](CCCNC(=N)N)NC(=O)[C@H](CCCCN)NC(=O)[C@@H](CC(C)C)NC(=O)[C@H](Cc1ccccc1)NC(=O)[C@H](CCCCN)NC(=O)[C@H](CO)NC(=O)[C@H](Cc1ccccc1)NC(=O)[C@H](Cc1c[nH]c2ccccc12)NC(=O)[C@@H]1CCCN1C(=O)[C@@H](NC(=O)[C@@H](N)Cc1ccccc1)C(C)C)C(=O)N[C@@H](CC(C)C)C(N)=O (single isomer, unassigned)
MIC: 1.56 µM

Compound: CC[C@H](C)C(NC(=O)[C@H](CCCNC(=N)N)NC(=O)[C@@H](CCCCN)NC(=O)[C@@H](CC(C)C)NC(=O)[C@H](Cc1ccccc1)NC(=O)[C@H](CCCCN)NC(=O)[C@H](CO)NC(=O)[C@H](Cc1ccccc1)NC(=O)[C@H](Cc1c[nH]c2ccccc12)NC(=O)[C@@H]1CCCN1C(=O)[C@@H](NC(=O)[C@@H](N)Cc1ccccc1)C(C)C)C(=O)N[C@@H](CC(C)C)C(N)=O (single isomer, unassigned)
MIC: 1.56 µM

Compound: CC[C@H](C)[C@H](NC(=O)[C@H](CCCNC(=N)N)NC(=O)[C@@H](Cc1c[nH]c2ccccc12)NC(=O)[C@@H](CC(C)C)NC(=O)[C@H](Cc1ccccc1)NC(=O)[C@H](CCCCN)NC(=O)[C@H](CO)NC(=O)[C@H](Cc1ccccc1)NC(=O)[C@H](Cc1c[nH]c2ccccc12)NC(=O)[C@@H]1CCCN1C(=O)[C@@H](NC(=O)[C@@H](N)Cc1ccccc1)C(C)C)C(=O)N[C@@H](CC(C)C)C(N)=O (H-FVPWFSKF[dL][dW]RIL-NH2)
MIC: 3.12 µM

Compound: CC[C@H](C)[C@H](NC(=O)[C@H](CCCNC(=N)N)NC(=O)C1(NC(=O)[C@@H](CC(C)C)NC(=O)[C@H](Cc2ccccc2)NC(=O)[C@H](CCCCN)NC(=O)[C@H](CO)NC(=O)[C@H](Cc2ccccc2)NC(=O)[C@H](Cc2c[nH]c3ccccc23)NC(=O)[C@@H]2CCCN2C(=O)[C@@H](NC(=O)[C@@H](N)Cc2ccccc2)C(C)C)Cc2ccccc2C1)C(=O)N[C@@H](CC(C)C)C(N)=O (H-FVPWFSKF[dL][Aic]RIL-NH2)
MIC: 6.25 µM

Compound: CC[C@H](C)[C@H](NC(=O)[C@H](CCCNC(=N)N)NC(=O)CNC(=O)[C@@H](CC(C)C)NC(=O)[C@H](Cc1ccccc1)NC(=O)[C@H](CCCCN)NC(=O)[C@H](CO)NC(=O)[C@H](Cc1ccccc1)NC(=O)[C@H](Cc1c[nH]c2ccccc12)NC(=O)[C@@H]1CCCN1C(=O)[C@@H](NC(=O)[C@@H](N)Cc1ccccc1)C(C)C)C(=O)N[C@@H](CC(C)C)C(N)=O (H-FVPWFSKF[dL]GRIL-NH2)
MIC: 3.12 µM

Compound: CC[C@H](C)[C@H](NC(=O)[C@H](CCCNC(=N)N)NC(=O)[C@@H]1CCCN1C(=O)[C@@H](CC(C)C)NC(=O)[C@H](Cc1ccccc1)NC(=O)[C@H](CCCCN)NC(=O)[C@H](CO)NC(=O)[C@H](Cc1ccccc1)NC(=O)[C@H](Cc1c[nH]c2ccccc12)NC(=O)[C@@H]1CCCN1C(=O)[C@@H](NC(=O)[C@@H](N)Cc1ccccc1)C(C)C)C(=O)N[C@@H](CC(C)C)C(N)=O (H-FVPWFSKF[dL]PRIL-NH2)
MIC: 1.56 µM

Compound: CC[C@H](C)[C@H](NC(=O)[C@H](CCCNC(=N)N)NC(=O)[C@H]1C[C@@H](O)CN1C(=O)[C@@H](CC(C)C)NC(=O)[C@H](Cc1ccccc1)NC(=O)[C@H](CCCCN)NC(=O)[C@H](CO)NC(=O)[C@H](Cc1ccccc1)NC(=O)[C@H](Cc1c[nH]c2ccccc12)NC(=O)[C@@H]1CCCN1C(=O)[C@@H](NC(=O)[C@@H](N)Cc1ccccc1)C(C)C)C(=O)N[C@@H](CC(C)C)C(N)=O
MIC: 3.12 µM
